tgt: VM321 (HvirOR6 L321V, VM6) (Heliothis virescens, UniProt Q8MMI0, L321V)
test.description: cell-based
parameter.measured: EC50 (µM)
Numeric only. Scale: µM

Kindly indicate its recorded EC50. Item: CCCCCC/C=C\CCCCCCCC=O [Z9-16:Ald, (Z)-9-hexadecenal] 40.8

* * *

tgt: SM321 (HsubOR6 V321L) (Heliothis subflexa, UniProt A0A8E4MSQ8, V314L)
test.description: cell-based
parameter.measured: EC50 (µM)
Numeric only. Scale: µM

Kindly indicate its recorded EC50. Item: CCCCCC/C=C\CCCCCCCC=O [Z9-16:Ald, (Z)-9-hexadecenal] 20.4
